Examples of compounds with documented AC50 follow.
# System: Gamma-aminobutyric acid receptor subunit alpha-1 (Rattus norvegicus, UniProt P62813); also: assay procedure not described here
# Sequence (P62813 whole entry): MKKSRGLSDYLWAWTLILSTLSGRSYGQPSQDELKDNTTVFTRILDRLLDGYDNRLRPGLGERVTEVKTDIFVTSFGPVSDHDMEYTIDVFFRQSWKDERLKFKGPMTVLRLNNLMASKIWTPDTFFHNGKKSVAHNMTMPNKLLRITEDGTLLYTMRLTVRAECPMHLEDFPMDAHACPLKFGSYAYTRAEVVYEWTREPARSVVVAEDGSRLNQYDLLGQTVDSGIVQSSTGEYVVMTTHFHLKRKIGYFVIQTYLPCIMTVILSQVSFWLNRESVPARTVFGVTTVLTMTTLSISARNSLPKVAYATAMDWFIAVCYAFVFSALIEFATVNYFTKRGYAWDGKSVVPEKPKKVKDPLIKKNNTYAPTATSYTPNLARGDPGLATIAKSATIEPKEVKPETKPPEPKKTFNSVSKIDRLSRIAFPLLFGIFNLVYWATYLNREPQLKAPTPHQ
# Type: functional

CC(=O)OCC(=O)[C@@]1(O)CC[C@H]2[C@@H]3CCC4=CC(=O)CC[C@]4(C)[C@H]3C(=O)C[C@@]21C [CORTISONE ACETATE] | > 30 µM

## Input Requested field: AC50. Item: CC(C)(Oc1ccc(C2CC2(Cl)Cl)cc1)C(=O)O (stereo not given) [CIPROFIBRATE]
## Output > 30 µM

## Input And the next one, `CCCCCN(C)CCC(O)(P(=O)(O)O)P(=O)(O)O` ?
## Output > 30 µM

## Input And the next one, `Nc1nc(N)c2nc(-c3ccccc3)c(N)nc2n1` ?
## Output > 30 µM

## Input And the next one, COc1ccccc1OCC(O)COC(N)=O (stereo not given) ?
## Output > 10 µM

---

# System: UniProt P21728
# Sequence (P21728 whole entry): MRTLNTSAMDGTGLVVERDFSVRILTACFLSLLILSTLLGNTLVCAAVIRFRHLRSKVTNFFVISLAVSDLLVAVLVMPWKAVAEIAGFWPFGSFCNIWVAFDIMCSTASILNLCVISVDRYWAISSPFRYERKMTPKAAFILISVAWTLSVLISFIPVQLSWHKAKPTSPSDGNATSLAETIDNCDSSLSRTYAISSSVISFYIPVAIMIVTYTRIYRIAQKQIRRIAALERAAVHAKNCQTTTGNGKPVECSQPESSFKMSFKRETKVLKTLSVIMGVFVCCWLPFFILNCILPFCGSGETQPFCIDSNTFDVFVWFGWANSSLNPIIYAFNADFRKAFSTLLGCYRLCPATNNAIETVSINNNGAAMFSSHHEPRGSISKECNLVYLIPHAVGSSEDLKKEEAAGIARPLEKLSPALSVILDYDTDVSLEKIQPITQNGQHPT
Examples of compounds with documented AC50 follow.

Recorded AC50, per entry:
CCC1C(C)=NN=C(c2ccc(OC)c(OC)c2)c2cc(OC)c(OC)cc21 (centres undefined) | > 30 µM
Nc1ccc(S(N)(=O)=O)cc1 [SULFANILAMIDE] | > 30 µM
COc1ccc(-c2cc(=O)c3c(O)cc(O[C@@H]4O[C@H](CO[C@@H]5O[C@@H](C)[C@H](O)[C@@H](O)[C@H]5O)[C@@H](O)[C@H](O)[C@H]4O)cc3o2)cc1O | > 30 µM

## Input Requested field: AC50. Item: CC(C)C(=O)Nc1ccc([N+](=O)[O-])c(C(F)(F)F)c1 [FLUTAMIDE]
## Output > 30 µM

## Input And the next one, CC(=O)Oc1c(C)cc(OCC(O)CNC(C)C)c(C)c1C (centres undefined) ?
## Output > 30 µM

---

# System: Gamma-aminobutyric acid receptor subunit alpha-1 (Rattus norvegicus, UniProt P62813); also: assay procedure not described here
# Assay type: functional
Measurement kind: AC50

NC[C@H]1O[C@H](O[C@H]2[C@H](O)[C@@H](O[C@H]3O[C@H](CO)[C@@H](O)[C@H](N)[C@H]3O)[C@H](N)C[C@@H]2N)[C@H](O)[C@@H](O)[C@@H]1O | > 10 µM
CCCCCCC(C)(C)c1cc(O)c2c(c1)OC(C)(C)C1CCC(=O)CC21 (stereo unspecified) | > 30 µM
CC[C@H](C)C(=O)O[C@H]1C[C@H](O)C=C2C=C[C@H](C)[C@H](CC[C@@H](O)C[C@@H](O)CC(=O)O)[C@H]21 | > 30 µM
CC(C)NNC(=O)c1ccncc1 | > 30 µM
COc1c(C)c2c(c(O)c1C/C=C(\C)CCC(=O)OCCN1CCOCC1)C(=O)OC2 [MYCOPHENOLATE MOFETIL] | > 30 µM

Please turn your attention to the following entry.
## Input Could you share what AC50 was measured for `CC[C@]1(O)C[C@@H]2CN(CCc3c([nH]c4ccccc34)[C@@](C(=O)OC)(c3cc4c(cc3OC)N(C)[C@H]3[C@@](O)(C(N)=O)[C@H](O)[C@]5(CC)C=CCN6CC[C@]43[C@@H]65)C2)C1` , tested on Gamma-aminobutyric acid receptor subunit alpha-1 (Rattus norvegicus, UniProt P62813)?; also: assay procedure not described here
## Output > 30 µM
